Each entry below carries its recorded Relative PSMA-binding affinity.
biological target: PSMA (Homo sapiens); construct: expressed in transfected cells; host or cells: PC-3 PIP cells (PSMA-positive subline of human PC-3 prostate cancer cells), provided by Prof; Martin Pomper, Johns Hopkins; experiment: Saturation binding assay on PC-3 PIP cells (PSMA affinity, KD); conditions: inverse molar ratio of average KD values, ^177Lu-PSMA-617 set to 1
Sequence (Q04609 whole entry): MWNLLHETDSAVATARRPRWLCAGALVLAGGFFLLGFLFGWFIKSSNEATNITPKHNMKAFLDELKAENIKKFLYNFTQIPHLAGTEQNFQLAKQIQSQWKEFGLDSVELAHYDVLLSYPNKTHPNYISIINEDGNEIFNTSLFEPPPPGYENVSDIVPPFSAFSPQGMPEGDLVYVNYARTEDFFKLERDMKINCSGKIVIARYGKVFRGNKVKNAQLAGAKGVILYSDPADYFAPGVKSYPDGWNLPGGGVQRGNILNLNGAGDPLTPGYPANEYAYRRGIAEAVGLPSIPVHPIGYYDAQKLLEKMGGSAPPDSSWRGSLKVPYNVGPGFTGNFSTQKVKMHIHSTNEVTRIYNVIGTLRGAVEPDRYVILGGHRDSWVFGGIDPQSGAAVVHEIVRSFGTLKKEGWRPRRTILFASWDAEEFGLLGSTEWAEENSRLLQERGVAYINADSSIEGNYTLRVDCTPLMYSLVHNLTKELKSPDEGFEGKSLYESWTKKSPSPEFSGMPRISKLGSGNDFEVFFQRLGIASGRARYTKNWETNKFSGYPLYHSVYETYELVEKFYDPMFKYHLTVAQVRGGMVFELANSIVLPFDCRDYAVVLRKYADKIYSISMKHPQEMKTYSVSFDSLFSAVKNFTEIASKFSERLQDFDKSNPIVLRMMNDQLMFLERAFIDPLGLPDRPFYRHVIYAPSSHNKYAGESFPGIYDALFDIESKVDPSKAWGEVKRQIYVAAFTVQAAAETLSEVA

Molecule	Relative PSMA-binding affinity
O=C([O-])CN1CCN(CC(=O)[O-])CCN(CC(=O)NCC2CCC(C(=O)N[C@@H](Cc3ccc4ccccc4c3)C(=O)NCCCC[C@H](NC(=O)N[C@@H](CCC(=O)O)C(=O)O)C(=O)O)CC2)CCN(CC(=O)[O-])CC1.[177Lu+3] (stereo partly shown) [^177Lu-PSMA-617]	1.0
O=C([O-])CN1CCN(CC(=O)[O-])CCN(CC(=O)NCC2CCC(C(=O)NC(Cc3ccc4ccccc4c3)C(=O)NCCCCC(NC(=O)NC(CCC(=O)O)C(=O)O)C(=O)O)CC2)CCN(CC(=O)[O-])CC1.[44Sc+3] (stereo not shown) [^44Sc-PSMA-617]	1.2
O=C([O-])CN1CCN(CC(=O)[O-])CCN(CC(=O)NCC2CCC(C(=O)NC(Cc3ccc4ccccc4c3)C(=O)NCCCCC(NC(=O)NC(CCC(=O)O)C(=O)O)C(=O)O)CC2)CCN(CC(=O)[O-])CC1.[68Ga+3] (stereo not shown) [^68Ga-PSMA-617]	0.5
O=C([O-])CN(CCN(CC(=O)[O-])Cc1cc(CCC(=O)NCCCCCC(=O)NCCCC[C@H](NC(=O)N[C@@H](CCC(=O)O)C(=O)O)C(=O)O)ccc1[O-])Cc1cc(CCC(=O)O)ccc1[O-].[68Ga+3] [^68Ga-PSMA-11]	0.4

====

Each entry below carries its recorded Kidneys.
system: PC-3 PIP/flu tumor-bearing mice; assay: Biodistribution in PC-3 PIP/flu tumor-bearing mice; conditions: 15 min p.i., i.v.

Compound	Kidneys [% IA/g]
O=C([O-])CN1CCN(CC(=O)[O-])CCN(CC(=O)NCC2CCC(C(=O)NC(Cc3ccc4ccccc4c3)C(=O)NCCCCC(NC(=O)NC(CCC(=O)O)C(=O)O)C(=O)O)CC2)CCN(CC(=O)[O-])CC1.[68Ga+3] (stereo not shown) [^68Ga-PSMA-617]	22.8
O=C([O-])CN1CCN(CC(=O)[O-])CCN(CC(=O)NCC2CCC(C(=O)N[C@@H](Cc3ccc4ccccc4c3)C(=O)NCCCC[C@H](NC(=O)N[C@@H](CCC(=O)O)C(=O)O)C(=O)O)CC2)CCN(CC(=O)[O-])CC1.[177Lu+3] (stereo partly shown) [^177Lu-PSMA-617]	30.8
O=C([O-])CN1CCN(CC(=O)[O-])CCN(CC(=O)NCC2CCC(C(=O)NC(Cc3ccc4ccccc4c3)C(=O)NCCCCC(NC(=O)NC(CCC(=O)O)C(=O)O)C(=O)O)CC2)CCN(CC(=O)[O-])CC1.[44Sc+3] (stereo not shown) [^44Sc-PSMA-617]	37.7
O=C([O-])CN(CCN(CC(=O)[O-])Cc1cc(CCC(=O)NCCCCCC(=O)NCCCC[C@H](NC(=O)N[C@@H](CCC(=O)O)C(=O)O)C(=O)O)ccc1[O-])Cc1cc(CCC(=O)O)ccc1[O-].[68Ga+3] [^68Ga-PSMA-11]	74.7
